assay-method-text: Plasma concentration in SCID mouse xenografted with human NCI-H838 cells at 10 mg/kg, iv measured after 24 hrs by LC-MS/MS analysis
Format: ADME, organism-based
measured-property: concentration at 24 h (ng/mL)

1: Cc1ncsc1-c1ccc([C@H](CN2CCOCC2)NC(=O)[C@@H]2C[C@@H](O)CN2C(=O)[C@@H](n2cc([C@H]3CC[C@H](CN4CCC(c5ccc6c(c5)-n5c(nc(=O)c7c(Cl)cccc75)C65CCCCC5)CC4)CC3)nn2)C(C)(C)C)cc1
2: COCCOCCOC[C@H](NC(=O)[C@@H]1C[C@@H](O)CN1C(=O)[C@@H](n1cc([C@H]2CC[C@H](CN3CCC(c4ccc5c(c4)-n4c(nc(=O)c6c(Cl)cccc64)C54CCCCC4)CC3)CC2)nn1)C(C)(C)C)c1ccc(-c2scnc2C)cc1
3: COCCOC[C@H](NC(=O)[C@@H]1C[C@@H](O)CN1C(=O)[C@@H](n1cc([C@H]2CC[C@H](CN3CCC(c4ccc5c(c4)-n4c(nc(=O)c6c(Cl)cccc64)C54CCCCC4)CC3)CC2)nn1)C(C)(C)C)c1ccc(-c2scnc2C)cc1
Query: Task for the reader: place the compounds above in descending order according to recorded concentration at 24 h. Could you list the labels in the order requested?
Response: 1, 3, 2
(1: 50 ng/mL, 3: 13 ng/mL, 2: 5.5 ng/mL)

* * *

assay-method-text: Plasma concentration in mouse xenografted with human MV4-11 cells at 30 mg/kg, iv single dose measured after 24 hrs by LC-MS/MS analysis
Type: ADME, organism-based
measured-property: concentration at 24 h (ng/mL)
Return type: number; implicit unit ng/mL.

Query: Would you mind telling me what concentration at 24 h value was observed for Cc1ncsc1-c1ccc([C@H](CN2CCOCC2)NC(=O)[C@@H]2C[C@@H](O)CN2C(=O)[C@@H](n2cc([C@H]3CC[C@H](CN4CCC(c5ccc6c(c5)-n5c(nc(=O)c7c(Cl)cccc75)C65CCCCC5)CC4)CC3)nn2)C(C)(C)C)cc1 ?
Response: 139

* * *

system-tested: von Hippel-Lindau disease tumor suppressor/SWI/SNF-related matrix-associated actin-dependent regulator of chromatin subfamily A member 2 (Homo sapiens, UniProt P51531+P40337)
Sequence (P51531 whole entry): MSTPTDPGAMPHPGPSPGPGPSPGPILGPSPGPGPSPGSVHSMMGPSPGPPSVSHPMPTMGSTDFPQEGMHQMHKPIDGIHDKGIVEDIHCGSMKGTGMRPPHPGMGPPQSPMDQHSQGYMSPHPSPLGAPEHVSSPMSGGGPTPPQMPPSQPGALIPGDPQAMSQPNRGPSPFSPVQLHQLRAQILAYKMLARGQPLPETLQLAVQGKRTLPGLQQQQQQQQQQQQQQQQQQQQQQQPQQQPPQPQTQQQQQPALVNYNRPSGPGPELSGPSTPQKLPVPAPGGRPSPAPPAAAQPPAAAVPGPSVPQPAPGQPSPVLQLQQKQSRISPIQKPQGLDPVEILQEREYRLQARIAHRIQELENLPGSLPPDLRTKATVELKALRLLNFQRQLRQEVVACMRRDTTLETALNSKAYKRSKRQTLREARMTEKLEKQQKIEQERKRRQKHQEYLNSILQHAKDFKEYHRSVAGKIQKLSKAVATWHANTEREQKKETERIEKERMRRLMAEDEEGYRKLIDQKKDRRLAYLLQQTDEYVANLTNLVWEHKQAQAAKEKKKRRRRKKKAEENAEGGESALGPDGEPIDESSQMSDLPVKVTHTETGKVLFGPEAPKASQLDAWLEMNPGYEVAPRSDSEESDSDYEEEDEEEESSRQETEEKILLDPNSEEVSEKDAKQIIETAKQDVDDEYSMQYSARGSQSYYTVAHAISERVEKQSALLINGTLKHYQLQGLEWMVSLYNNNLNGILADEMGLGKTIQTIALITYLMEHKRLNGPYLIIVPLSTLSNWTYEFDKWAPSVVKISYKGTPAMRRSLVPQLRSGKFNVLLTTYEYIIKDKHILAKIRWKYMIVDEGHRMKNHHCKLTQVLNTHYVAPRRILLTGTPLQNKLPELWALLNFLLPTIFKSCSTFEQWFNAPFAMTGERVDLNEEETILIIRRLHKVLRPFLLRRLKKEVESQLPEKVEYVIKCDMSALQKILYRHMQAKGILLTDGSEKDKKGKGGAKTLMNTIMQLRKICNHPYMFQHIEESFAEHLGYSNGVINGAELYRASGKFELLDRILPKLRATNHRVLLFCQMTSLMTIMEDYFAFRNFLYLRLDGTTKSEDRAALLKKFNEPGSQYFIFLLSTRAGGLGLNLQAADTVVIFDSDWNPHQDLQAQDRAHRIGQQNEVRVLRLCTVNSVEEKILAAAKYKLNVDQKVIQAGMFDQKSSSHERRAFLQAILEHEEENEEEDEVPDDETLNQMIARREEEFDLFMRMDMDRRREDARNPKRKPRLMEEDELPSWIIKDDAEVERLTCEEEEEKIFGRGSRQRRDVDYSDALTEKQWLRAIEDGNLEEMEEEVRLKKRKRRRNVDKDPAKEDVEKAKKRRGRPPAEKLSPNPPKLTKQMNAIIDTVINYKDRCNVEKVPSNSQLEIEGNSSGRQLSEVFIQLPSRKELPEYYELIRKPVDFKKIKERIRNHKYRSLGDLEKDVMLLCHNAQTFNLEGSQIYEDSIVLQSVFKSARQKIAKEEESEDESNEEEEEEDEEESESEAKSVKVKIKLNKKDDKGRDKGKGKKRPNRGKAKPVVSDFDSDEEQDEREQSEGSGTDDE
Sequence (P40337 whole entry): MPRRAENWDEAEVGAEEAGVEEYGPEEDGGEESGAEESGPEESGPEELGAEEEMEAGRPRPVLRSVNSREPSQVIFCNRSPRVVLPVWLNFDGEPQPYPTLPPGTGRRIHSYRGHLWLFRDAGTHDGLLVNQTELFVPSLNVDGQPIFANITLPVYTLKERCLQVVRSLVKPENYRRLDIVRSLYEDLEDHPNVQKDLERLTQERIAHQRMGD
assay-method-text: PROTAC activity at SMARCA2/VHL1 in human HeLa cells assessed as protein degradation by Nano-Glo HiBiT lytic detection assay
Type: cell-based
measured-property: DC50 (nM)
Return type: number; implicit unit nM.

structure_smiles_string=Cc1ncsc1-c1ccc([C@H](CN2CCOCC2)NC(=O)[C@@H]2C[C@@H](O)CN2C(=O)[C@@H](n2cc([C@H]3CC[C@H](CN4CCC(c5ccc6c(c5)-n5c(nc(=O)c7c(Cl)cccc75)C65CCCCC5)CC4)CC3)nn2)C(C)(C)O)cc1 recorded_measurement=1

Okay, now this molecule:
Query: Would you mind telling me what DC50 value was observed for Cc1ncsc1-c1ccc([C@H](C)NC(=O)[C@@H]2C[C@@H](O)CN2C(=O)[C@@H](NC(=O)[C@H]2CC[C@H](CN3CCC(c4ccc5c(c4)-n4c(nc(=O)c6c(Cl)cccc64)C54CCCCC4)CC3)CC2)C(C)(C)C)cc1 ?
Response: 8

* * *

assay-method-text: Drug uptake in tumor of human NCI-H838 cells xenografted SCID mouse model at 10 mg/kg, iv measured after 96 hrs by LC-MS/MS analysis
Format: ADME, organism-based, Neoplasm
run-parameters: read-out: Drug uptake
measured-property: concentration at 96 h (ng/mL)

A: COCCOC[C@H](NC(=O)[C@@H]1C[C@@H](O)CN1C(=O)[C@@H](n1cc([C@H]2CC[C@H](CN3CCC(c4ccc5c(c4)-n4c(nc(=O)c6c(Cl)cccc64)C54CCCCC4)CC3)CC2)nn1)C(C)(C)C)c1ccc(-c2scnc2C)cc1
B: Cc1ncsc1-c1ccc([C@H](CN2CCOCC2)NC(=O)[C@@H]2C[C@@H](O)CN2C(=O)[C@@H](n2cc([C@H]3CC[C@H](CN4CCC(c5ccc6c(c5)-n5c(nc(=O)c7c(Cl)cccc75)C65CCCCC5)CC4)CC3)nn2)C(C)(C)C)cc1
C: COCCOCCOC[C@H](NC(=O)[C@@H]1C[C@@H](O)CN1C(=O)[C@@H](n1cc([C@H]2CC[C@H](CN3CCC(c4ccc5c(c4)-n4c(nc(=O)c6c(Cl)cccc64)C54CCCCC4)CC3)CC2)nn1)C(C)(C)C)c1ccc(-c2scnc2C)cc1
Query: Hey, can you sort those compounds up there by concentration at 96 h, smallest first? Could you list the labels in the order requested?
Response: C, A, B
(C: 53 ng/mL, A: 79 ng/mL, B: 268 ng/mL)

* * *

system-tested: von Hippel-Lindau disease tumor suppressor/SWI/SNF-related matrix-associated actin-dependent regulator of chromatin subfamily A member 4 (Homo sapiens, UniProt P51532+P40337)
Sequence (P51532 whole entry): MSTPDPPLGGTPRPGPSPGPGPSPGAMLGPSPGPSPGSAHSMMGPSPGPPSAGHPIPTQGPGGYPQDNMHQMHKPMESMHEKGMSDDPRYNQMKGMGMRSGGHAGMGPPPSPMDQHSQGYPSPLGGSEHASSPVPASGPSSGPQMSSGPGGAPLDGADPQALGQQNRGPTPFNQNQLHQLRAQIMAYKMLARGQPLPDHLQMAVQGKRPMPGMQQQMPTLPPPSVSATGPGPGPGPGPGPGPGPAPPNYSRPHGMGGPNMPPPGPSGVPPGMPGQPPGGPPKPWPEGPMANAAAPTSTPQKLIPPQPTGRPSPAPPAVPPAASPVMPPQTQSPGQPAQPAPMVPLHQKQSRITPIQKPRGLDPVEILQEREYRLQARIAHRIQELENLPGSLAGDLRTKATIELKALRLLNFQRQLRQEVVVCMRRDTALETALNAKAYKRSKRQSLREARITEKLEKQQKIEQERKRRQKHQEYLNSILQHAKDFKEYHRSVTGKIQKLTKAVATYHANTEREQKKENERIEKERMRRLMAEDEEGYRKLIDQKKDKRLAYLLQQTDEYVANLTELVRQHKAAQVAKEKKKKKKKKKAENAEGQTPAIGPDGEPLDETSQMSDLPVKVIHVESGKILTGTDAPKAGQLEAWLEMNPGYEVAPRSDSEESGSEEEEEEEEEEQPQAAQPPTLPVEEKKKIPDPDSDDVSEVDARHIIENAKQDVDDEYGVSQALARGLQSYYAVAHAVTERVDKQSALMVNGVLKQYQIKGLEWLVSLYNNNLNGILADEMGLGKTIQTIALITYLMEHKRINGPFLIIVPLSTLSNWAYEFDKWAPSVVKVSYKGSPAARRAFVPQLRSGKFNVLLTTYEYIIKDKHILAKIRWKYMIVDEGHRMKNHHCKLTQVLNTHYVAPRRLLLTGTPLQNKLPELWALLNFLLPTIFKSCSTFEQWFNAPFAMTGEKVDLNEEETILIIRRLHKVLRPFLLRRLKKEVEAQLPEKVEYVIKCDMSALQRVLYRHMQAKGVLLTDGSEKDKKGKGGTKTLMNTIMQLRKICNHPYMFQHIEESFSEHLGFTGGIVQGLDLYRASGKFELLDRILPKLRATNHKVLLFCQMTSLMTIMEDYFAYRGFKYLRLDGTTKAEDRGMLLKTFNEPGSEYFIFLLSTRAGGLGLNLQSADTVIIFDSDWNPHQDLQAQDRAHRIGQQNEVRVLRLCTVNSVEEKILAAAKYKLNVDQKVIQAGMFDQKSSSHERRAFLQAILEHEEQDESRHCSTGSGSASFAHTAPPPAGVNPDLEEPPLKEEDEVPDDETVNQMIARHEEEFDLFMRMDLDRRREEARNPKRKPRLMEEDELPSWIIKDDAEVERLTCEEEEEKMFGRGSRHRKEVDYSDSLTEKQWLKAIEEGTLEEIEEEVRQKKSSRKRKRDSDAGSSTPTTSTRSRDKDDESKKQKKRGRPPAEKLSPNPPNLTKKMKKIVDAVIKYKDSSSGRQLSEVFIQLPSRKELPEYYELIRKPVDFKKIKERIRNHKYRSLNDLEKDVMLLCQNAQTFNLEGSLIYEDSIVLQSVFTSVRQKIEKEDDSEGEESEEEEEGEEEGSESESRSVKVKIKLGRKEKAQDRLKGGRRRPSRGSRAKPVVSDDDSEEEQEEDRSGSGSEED
Sequence (P40337 whole entry): as the sequence (P40337 whole entry) above
assay-method-text: PROTAC activity at SMARCA4/VHL1 in human HeLa cells assessed as protein degradation by Nano-Glo HiBiT lytic detection assay
Format: cell-based
measured-property: DC50 (nM)

Example cases with answers are listed next.
structure_smiles_string=Cc1ncsc1-c1ccc([C@H](C)NC(=O)[C@@H]2C[C@@H](O)CN2C(=O)[C@@H](n2cc([C@H]3CC[C@H](CN4CCC(c5ccc6c(c5)-n5c(nc(=O)c7c(Cl)cccc75)C65CCCCC5)CC4)CC3)nn2)C(C)(C)C)cc1 recorded_measurement=115
structure_smiles_string=Cc1nc(C)c(-c2ccc([C@H](CN3CCOCC3)NC(=O)[C@@H]3C[C@@H](O)CN3C(=O)[C@@H](n3cc([C@H]4CC[C@H](CN5CCC(c6ccc7c(c6)-n6c(nc(=O)c8c(Cl)cccc86)C76CCCCC6)CC5)CC4)nn3)C(C)(C)C)cc2)o1 recorded_measurement=575
structure_smiles_string=Cc1ncsc1-c1ccc([C@H](CN2CCN(C)CC2)NC(=O)[C@@H]2C[C@@H](O)CN2C(=O)[C@@H](n2cc([C@H]3CC[C@H](CN4CCC(c5ccc6c(c5)-n5c(nc(=O)c7c(Cl)cccc75)C65CCCCC5)CC4)CC3)nn2)C(C)(C)C)cc1 recorded_measurement=62
structure_smiles_string=CC(C)(C)[C@@H](C(=O)N1C[C@H](O)C[C@H]1C(=O)N[C@@H](CN1CCOCC1)c1ccc(-c2ccccc2)cc1)n1cc([C@H]2CC[C@H](CN3CCC(c4ccc5c(c4)-n4c(nc(=O)c6c(Cl)cccc64)C54CCCCC4)CC3)CC2)nn1 recorded_measurement=430

1: Cc1ncsc1-c1ccc([C@H](C)NC(=O)[C@@H]2C[C@@H](O)CN2C(=O)[C@@H](n2cc([C@H]3CC[C@H](CN4CCC(c5ccc6c(c5)-n5c(nc(=O)c7c(Br)cccc75)C65CCCCC5)CC4)CC3)nn2)C(C)(C)C)cc1
2: CC(C)(C)[C@@H](C(=O)N1C[C@H](O)C[C@H]1C(=O)N[C@@H](CN1CCOCC1)c1ccc(-c2ccccc2F)cc1)n1cc([C@H]2CC[C@H](CN3CCC(c4ccc5c(c4)-n4c(nc(=O)c6c(Cl)cccc64)C54CCCCC4)CC3)CC2)nn1
3: Cc1ncsc1-c1ccc([C@H](C)NC(=O)[C@@H]2C[C@@H](O)CN2C(=O)[C@@H](n2cc([C@H]3CC[C@H](CN4CCC(c5ccc6c(c5)C5(CCCCC5)c5nc(=O)c7c(Cl)cccc7n5-6)CC4)CC3)nn2)C(C)(C)C)cc1
Query: Hello, I need these entries ordered by DC50, highest reading first. Thanks! Could you list the labels in the order requested?
Response: 2, 1, 3

* * *

system-tested: von Hippel-Lindau disease tumor suppressor/SWI/SNF-related matrix-associated actin-dependent regulator of chromatin subfamily A member 2 (Homo sapiens, UniProt P51531+P40337)
assay-method-text: PROTAC activity at SMARCA2/VHL1 in human HeLa cells assessed as protein degradation by Nano-Glo HiBiT lytic detection assay
Type: cell-based
measured-property: DC50 (nM)

Example cases with answers are listed next.
structure_smiles_string=Cc1ncsc1-c1ccc([C@H](CN2CC(C(=O)O)C2)NC(=O)[C@@H]2C[C@@H](O)CN2C(=O)[C@@H](n2cc([C@H]3CC[C@H](CN4CCC(c5ccc6c(c5)-n5c(nc(=O)c7c(Cl)cccc75)C65CCCCC5)CC4)CC3)nn2)C(C)(C)C)cc1 recorded_measurement=228
structure_smiles_string=CC(C)(C)[C@@H](C(=O)N1C[C@H](O)C[C@H]1C(=O)N[C@@H](CN1CCOCC1)c1ccc(-c2ccccc2F)cc1)n1cc([C@H]2CC[C@H](CN3CCC(c4ccc5c(c4)-n4c(nc(=O)c6c(Cl)cccc64)C54CCCCC4)CC3)CC2)nn1 recorded_measurement=1

a: Cc1ncsc1-c1ccc([C@H](C)NC(=O)[C@@H]2C[C@@H](O)CN2C(=O)[C@@H](n2cc([C@H]3CC[C@H](CN4CCC(c5ccc6c(c5)C5(CCCCC5)c5nc(=O)c7c(Cl)cccc7n5-6)CC4)CC3)nn2)C(C)(C)C)cc1
b: Cc1ncsc1-c1ccc([C@H](CN2CCN(C)CC2)NC(=O)[C@@H]2C[C@@H](O)CN2C(=O)[C@@H](n2cc([C@H]3CC[C@H](CN4CCC(c5ccc6c(c5)-n5c(nc(=O)c7c(Cl)cccc75)C65CCCCC5)CC4)CC3)nn2)C(C)(C)C)cc1
Query: I would appreciate it if you could say which entry, a or b , has the lower DC50 value. Response format: the label of the selected entry.
Response: a
